B1: tRNA (parent)
chain: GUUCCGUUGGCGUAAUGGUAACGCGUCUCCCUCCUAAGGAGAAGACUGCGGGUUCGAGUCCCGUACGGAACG

- Variants of: B1
- measurement-notes: yeast fitness relative to wild type (ratio to wild type); higher = fitter; tRNA-Arg(CCU), competitive growth, 37 C, YPD
Fewer inactive variants are shown than the library holds.
measurement-kind: yeast fitness
Could you respond with only the numeric value?

Input: Which yeast fitness reading was recorded for the variant GUUCUGUUGGCGUAAUGGUCACGCGUCUACCUCCUAAGGAGAAGACUGCGGGUUCGAGUCCCGUACGGAACG [C5U A20C C29A] ?
Output: 0.666

Input: Sample GUUCCGUUGGCGUAAUGGUAGCGCGUCUCCCACCUAAGGAGAAGACUGCGGGUUCGAGUCCCGUAUGGAACG [A21G U32A C66U] — what was its yeast fitness?
Output: 0.512

Input: For the variant shown here, GUUCCGUUGGCGUGAUGGUAGCGCGUCUCCCUCCUAAGGAGAAGACUGCGGGUUCGAGUCCCGUACGGAACG [A14G A21G] , give the reported yeast fitness.
Output: 0.989

Input: Look at this variant and give its reported yeast fitness. GUUCCGUAGGCGUAAUGGUAACGCGUCUCCUUCCUAAGGAGAAGACUGCGGGUUCGAGUCCCGUACGGCACG [U8A C31U A69C]
Output: 0.557

Input: Which yeast fitness reading was recorded for the variant GUUCCGUUGGCGUAAUGGUAACGCGUCUCCCUCGUAAGGAGAAGACUGCGGGUUCGAGUCCCGUACAGAACG [C34G G67A] ?
Output: 0.596

Input: Could you tell me which yeast fitness is on file for GUUCCGUUGGCGUAAUGGUAAGGAGUCUCCCUCCUAAAGAGAAGACUGCGGGUUCGAGUCCCGUACGGAACG [C22G C24A G38A] ?
Output: 0.544

Input: Data request, read-out yeast fitness, for GUUCCGUCGGCGUAAUGCUAACGCGUCUCCCUCCUAAGGAGAAGACUGCGGGUUCGAGUCCCGUACGGAACG [U8C G18C]
Output: 0.684

Input: Query: yeast fitness; subject: GUUCCGUUAGCGUAAUGGUAACGCGUCUCCCUCCUAAGGAGAAUACUGCGGGUUCGAGUCCCGUACGGAACG [G9A G44U]
Output: 0.766

Input: # yeast fitness lookup, item GUUUCGUUGGCGUAAUGGUUACGCGUCUCCCUCCUAAGGAGAAGACUGCGGGCUCGAGUCUCGUACGGAACG [C4U A20U U53C C61U]
Output: 0.627

Input: May I ask what yeast fitness has been recorded for GUUCCGUUGGCGUAAUGGUAACGCGUCUCGCUCCUAAGGUGAAGACUGCGGGUUCGAGUCCCGUACGGAUCG [C30G A40U A70U] ?
Output: 0.526

Input: Quick check: yeast fitness of GUUCCGUUGGCGUAAUGGUAACGCGUCUCCUUCCUAAGGAGAAGACUACGGGUUUGAGUCCCCUACGGAACG [C31U G48A C55U G63C] ?
Output: 0.595

Input: Can you share its yeast fitness? I mean this variant: GUUUCGUUGGCGCAAUGGUAACGCGUCUCCCUUCUAAGGAGAAGACUGCGGGUUCGAGUCCCGUGCGGAACG [C4U U13C C33U A65G]
Output: 0.617

Input: Recorded yeast fitness of GUUCCGUUGGCGUACUGGUAAAGCGUCUCCCUCCUAAGGAGAAGACUGCGGGUUCGAGUCCCGUACGGAACG [A15C C22A] , please.
Output: 0.697

Input: Which yeast fitness value is on record for GUUCCGUUGGCGUAAUGGUAACGCGUCUCCUUCCUAAGGAGAAGACUACGGGUUCGAGUCCCGUACGGCACG [C31U G48A A69C] ?
Output: 0.772

Input: // lookup yeast fitness for GUUCCGUUGGCGUAAUGGUAACGCGUCUCCCUCCUAAGGAGAAGAUUGCCGGUUCGAGUCCCGUACGGAACG [C46U G50C]
Output: 0.819

Input: I'd like to know its yeast fitness. The variant in question is GUUCCGUUGGCGUAAUGGUAACGCGUCUCCCUCCUAAGGAGUGGACUCCGGGAUCGAGUCCCGUACGGCACG [A42U A43G G48C U53A A69C]
Output: 0.589

Input: Name the recorded yeast fitness for GUUUCGUUCGCGUAAUGGUAACGCGUCUCCCUCCUAAGGAGAAGACUGCGGGUUCGAGUCCCGUACGGCACG [C4U G9C A69C] .
Output: 0.594

Input: What measured yeast fitness goes with GUUCCGUUGGCGUAAUGGUGACGCGUCUCCUUCCUAAGGAGUAGAUUGCGGGUUCGAGUCCCGUAGGGAACG [A20G C31U A42U C46U C66G] ?
Output: 0.714

Input: Requested read-out: yeast fitness. Entry: GUUACGUUGGCGUAAUGGUAACGCGUCUCCCUCCUAAGGAGAAGACUGCGGGUUCAAGUCCUGUACGGAACG [C4A G56A C62U]
Output: 0.626

Input: What does the record list as yeast fitness for GUACCGUUGGCGUAAUGGUAAGGCGUCUCCCUCCUAAGGAGAAGACUGCGGGUUCGAGUCCCGUACGGAACG [U3A C22G] ?
Output: 0.714

Input: For GUUCCGUUGGCGUAGUGGUAACGCGUCUACCUCCUAAGGAGAAGACUGCGGGUUCGACUCCCGUACGGAACG [A15G C29A G58C] , what is its reported yeast fitness?
Output: 0.503

Input: Need yeast fitness, item GUUCGGUUGGCGUAAUGGUGACGCGUCUCCCUCCUAAGGAGAAGACUGCGGGUUCGAGUCCCGUUCGGAACG [C5G A20G A65U]
Output: 0.652

Input: Param item = GUCCCGUUGGCGUAAUGGUAACGCGUCUCCCUCCUAAGGAGAAGAAUGCGGGUUCGAGUCCCGUACGGAACG [U3C C46A] ; retrieve measured yeast fitness.
Output: 0.912

Input: Item GUUCCGUUGGCGUAAUGGUAACGCGUCUCCCUCCUAAGGACGAGACUGCGAGUUCGAGUCCCGUACGGAACG [G41C A42G G51A] has what recorded yeast fitness?
Output: 0.538

Input: Would you kindly share the measured yeast fitness for GUUCCGUUGGCGUAAUGGUAACGCGUUUCCCUCCUAAGGACAAGACUGCGGGUUCGAGUCCCGUCCGGAACG [C27U G41C A65C] ?
Output: 0.588

Input: Please look up its yeast fitness: GCUCCGUUGGCGUGAUGGUAACGCGUCUACCUGCUAAGGAGAAGACUGCGGGUUCGAGUCCCGUACGGAACG [U2C A14G C29A C33G]
Output: 0.565

Input: I'd like to know its yeast fitness. The variant in question is GUUCCGUUGGCGUAAUGGUAACGCGUCUCCCUCCUAAGGAGAAGUCUGCGGGUUCGUGUCCCGUACGGAACG [A45U A57U]
Output: 0.744

Input: Which yeast fitness value is on record for GUUCCGUUGGCGUAGUGGUACCGCGUCUCCCUCCUAAGGAGAAGACUGCGGGUUCGAGUCCCGUACGGAACG [A15G A21C] ?
Output: 0.709
